Provide the recorded z-score for the entries that follow.
- ASSAY PROCEDURE: basal 3T3-L1 adipocyte mitochondrial potential changes, profiling panel, cell-based, JC-1 fluorescence, 3T3-L1 adipocytes, 24 h, 100 nL compound (AID 1168); further: test concentration not given here
- TEST PARAMETERS: JC-1 mitochondrial fluorescence, higher = more signal, called active from +8 up or from −8 down
Answers are plain numbers.

Completed entries (count: 4):
| COMPOUND | z-score |
| --- | --- |
| C=CCC(OC(C)=O)[C@@H]1[C@@H](N(Cc2cccc3ccccc23)C(=O)c2ccc(C)cc2)c2cc(OCCCO)ccc2N1C(=O)c1ccc(-c2ccccc2)cc1 (stereo not given in full) | -0.0453 |
| C#CCCCON=C1C[C@@H](O)[C@@H](O)[C@@H]2[C@@H]3C(=O)N(Cc4ccc5c(c4)OCO5)C(=O)[C@@H]3CC[C@@H]12 | 1.44 |
| Cc1ccc(S(=O)(=O)N2[C@@H](c3ccccc3)C(C(=O)O)=CC[C@H]2c2ccccc2)cc1 | -0.17 |
| COc1cc(Cc2cc3c(c(CCc4ccccc4)n2)[Si](C(C)C)(C(C)C)OC3)cc(OC)c1OC | -0.411 |

--- query ---
Supply reported z-score belonging to this compound: Cc1ccc(S[C@]2(C(=O)NCCCN(C)C)CC(=O)N(C3CCCCC3)[C@@H]2c2ccc(CO)cc2I)cc1
0.794
